Assay: amyloid nucleation score (Sup35N fusion, yeast selection) (log enrichment); library NNK2; higher = more nucleation; inactive = no reads after selection;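 further: zero at mode of non-aggregating sequences after 7 days selection at 30°C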
ENDPOINT NAME: amyloid nucleation score
Give bare numbers.

In the examples that follow, each entry is paired with its recorded amyloid nucleation score.
{"columns": ["SUBSTANCE", "READING"],
 "data": [
  ["STMLWLCFFMGKLSVDTVFE", -0.6],
  ["VYFFCYSFTYEEGMAIRKSC", -1],
  ["FMSMLSCQAKTNLPMYATHM", -0.091],
  ["TMHYYLWDSN", 4.88],
  ["IIHYAFSRNWSP", 1.54],
  ["TWNSANFFIKLRQSVFYLSR", -1.46],
  ["FRDCYCRVVAPYDLHFVCTW", 0.573],
  ["YWSICPCCFLVSFSDTSWKG", 8.14]
]}

For each of the substances below, note its amyloid nucleation score.
1. YSVLTLED
2. CHHTAYPMANFWQWLKGAMS
3. LDDPGLK
4. LQYINRGISRHVVKYSRSLS
5. FTLLSMNRSGFIIRVPDAV
6. NPLRWEWAGVWLRYTR
7. RRLLLLGSFWGSVHQHVTSS
8. DFQIFYFARLFRTV

1: 0.374; 2: 0.069; 3: 0.76; 4: -0.733; 5: 0.035; 6: 0.816; 7: -0.207; 8: -0.681

====

Assay: amyloid nucleation score (Sup35N fusion, yeast selection) (log enrichment); library NNK2; higher = more nucleation; inactive = no reads after selection
amyloid nucleation score of -0.01 or higher: YES. Under -0.01: NO.

Solved entries:
{"columns": ["ITEM SEQUENCE", "CATEGORY"],
 "data": [
  ["AYFRLWVRAWTLASGE", "YES"],
  ["FVSAHRYWCHMTLSAVMGLH", "YES"],
  ["SSYNSGLRLLSFTCCV", "YES"],
  ["HSSLFSYREQLYTSFCNIGM", "YES"],
  ["VTPTEGCSVSHVRSRSLKNA", "NO"],
  ["MSMLNRALGILKSTFMINRR", "NO"],
  ["WLFDGGFSVKWPDRVSLARV", "NO"],
  ["YFNRIYYTDIYNMVALVICF", "YES"],
  ["VNLMVYASVIIGCAVARS", "YES"],
  ["KFSGRYWTGIEGVRISVCLH", "NO"]
]}

Dear colleague, could you confirm whether QARLLSYLGDLVLASSWKVL has amyloid nucleation score at or above -0.01? NO

Dear colleague, could you confirm whether CMNSSDLECPMGDCVCVVLN has amyloid nucleation score at or above -0.01? YES

Dear colleague, could you confirm whether FAFWGVSI has amyloid nucleation score at or above -0.01? YES

Dear colleague, could you confirm whether NYQIHVRVIRHLMTLGISAQ has amyloid nucleation score at or above -0.01? YES

Dear colleague, could you confirm whether HIICSRHSNEAKLRMKSKAI has amyloid nucleation score at or above -0.01? NO

Dear colleague, could you confirm whether SATFWLFVGVENVADMSKVG has amyloid nucleation score at or above -0.01? YES

====

Experiment: amyloid nucleation score (Sup35N fusion, yeast selection) (log enrichment); library NNK1; higher = more nucleation; inactive = no reads after selection
ENDPOINT NAME: amyloid nucleation score
One number for each entry.

{"columns": ["SUBSTANCE", "ENDPOINT NAME", "READING"],
 "data": [
  ["VCSKGACSLGDVNCDSTDVG", "amyloid nucleation score", 0.104]
]}

For each of the substances below, note its amyloid nucleation score.
1. KVTMRWV
2. QLELWVSLRCISWLQILRIL
3. LYAWGVRYSVVMLFSYRGVH

1. 2.21
2. 1.06
3. -0.026

For each of the substances below, note its amyloid nucleation score.
1. CFPRSRRRQRSFNLCVRESR
2. QSPISDCSGQSSCRMCQRYG
3. LHGLNF
4. SSLLFEPATASFILQD
5. FVLQWRNIRVVDLRMRPYPK
6. TFTCSFTQLRQLFFFVSQGC
7. LNNHETFFGFVDVSGSAIS
8. LMDIGPANEKFN

1. 1.13
2. 0.408
3. 0.843
4. -0.894
5. 0.508
6. 0.214
7. 0.272
8. -1.18

====

Assay: amyloid nucleation score (Sup35N fusion, yeast selection) (log enrichment); library NNK1; higher = more nucleation; inactive = no reads after selection
Task for the reader: assign each of the following sequences its reported amyloid nucleation score.
One number for each entry.

In the examples that follow, each entry is paired with its recorded amyloid nucleation score.
{"columns": ["ITEM SEQUENCE", "amyloid nucleation score"],
 "data": [
  ["SCHRPVPSRASSEKILGIAC", 0.157],
  ["KFLLNRVLTDMDLYT", 0.135],
  ["DDKIVRIEDSMAASNIAFLA", 0.371]
]}

For each of the sequences below, note its amyloid nucleation score.
1. SKSRMLPIGTRGCRNSQFVE
2. SNDVAFMAIKKHRTLSYQTD
3. MRYIKSVVSSVCSYNLPLRA
4. AGYAYSGIVAGAYWIFCNYE
5. TVLTTTHFARSVFTLPGKSP
6. LGGFSMRVNEVVLPGVRFGD

1: 1.06; 2: 0.165; 3: 0.525; 4: 1.12; 5: 2.89; 6: -0.037

====

Task for the reader: assign each of the following substances its reported amyloid nucleation score.
Test: amyloid nucleation score (Sup35N fusion, yeast selection) (log enrichment); library NNK1; higher = more nucleation; inactive = no reads after selection
Give bare numbers.

In the examples that follow, each entry is paired with its recorded amyloid nucleation score.
{"columns": ["SUBSTANCE", "amyloid nucleation score"],
 "data": [
  ["VADGYIHARSCRYFKNIIVR", -1],
  ["CGKTMGINAGMCSTNWGGPT", 0.263],
  ["ASLTDVYIDELRLSNEGTWN", 1.94],
  ["IAYNDSYMVKYCVREVLMDE", 4.29],
  ["VTLQQRLCSFYMLIVEFASS", 0.045]
]}

For each of the substances below, note its amyloid nucleation score.
1. VNRGVVVRITWIAKHYCMSE
2. SHADVR

0.26
-0.027

For each of the substances below, note its amyloid nucleation score.
1. FTVVWGHQVYVMTSPFSSAG
2. LYFVCIFPYRVRTECSEQSR
3. AGLRVYKIKSFRLEDSVNAG
4. MNLSYSTIVIYHRNEDCNVY

1. 5.76
2. 4.32
3. 1.49
4. 4.08

For each of the substances below, note its amyloid nucleation score.
1. APLYLHMWSCYSLMLSPSMG
2. VSHDGGLLRVWFMLALREGN
3. VKYGDSRLADAWNFVSNK
4. TTIRYNVLRAPMLCIIILMN
5. GLVNLADTGTVVDPSKGWLG

1. -1.5
2. 0.003
3. -0.476
4. -0.607
5. -0.441

For each of the substances below, note its amyloid nucleation score.
1. IFATTIFLLGTRTKLMSG
2. VDLDSVR
3. YKAKGRNAVS
4. VAACLKNMIESVQSVKYIWR
5. CVGGWWKTRHMSIWNWIWWL

1. 0.971
2. -0.236
3. -0.689
4. 0.837
5. 0.197

====

Experiment: amyloid nucleation score (Sup35N fusion, yeast selection) (log enrichment); library NNK1; higher = more nucleation; inactive = no reads after selection
Measured amyloid nucleation score determines class: category 1 (below -0.8), category 2 (-0.8 to below 0.6), category 3 (0.6 or more)

Solved entries:
{"columns": ["SUBSTANCE", "CATEGORY"],
 "data": [
  ["VKFKGTTLCYIFDMDFMHGI", "category 3"],
  ["CFNMFT", "category 2"],
  ["IHLIDLTRVSAG", "category 3"],
  ["KNGRWAWFTSRAHCFGYNFT", "category 1"],
  ["YGPSNYTIAQSS", "category 2"],
  ["KSQTRDIFRGDVMC", "category 1"],
  ["RGDLCGSRIFLWFALPVN", "category 2"],
  ["AYAGLRCVGSDVIAGKTVAN", "category 3"]
]}

Now consider the entry below.
Bin this entry: HVGRIPGEVYSLKFTGLGRY category 1

====

Test: amyloid nucleation score (Sup35N fusion, yeast selection) (log enrichment); library NNK2; higher = more nucleation; inactive = no reads after selection
ENDPOINT NAME: amyloid nucleation score
One number for each entry.

In the examples that follow, each entry is paired with its recorded amyloid nucleation score.
{"columns": ["SUBSTANCE", "READING"],
 "data": [
  ["SHMSHYRNSSTDFAA", -0.745],
  ["FARKMIGLPLLYLLGVMFGR", -0.877],
  ["IIKANVSVRYVFDKFHKMVH", 2.83],
  ["FAMNSVSFSAGNFTDSVPWW", -0.666],
  ["YWGGLCHLMSYRFTCIKYVG", -0.698],
  ["YLLSNWTNKVSWFLCVRPQS", 2.23]
]}

For each of the substances below, note its amyloid nucleation score.
1. WTNVYAIVFR
2. KMPWMTCSHVTFTRIHSKIS
3. SVKILPVISTTPFGV
4. SISSGMVDVAGQLSCTRVSE
5. ARKCDLFYTFFCTNIFSSVG
6. SYYEWARGTSVVLIAFVTSF

1. 4.65
2. -0.57
3. -0.922
4. 1.65
5. 4.8
6. -0.189

For each of the substances below, note its amyloid nucleation score.
1. PQHYVMGYVCWDVSVVLRSP
2. SVYGQRNTIIFEFSWMRTAS
3. TWFCVGKVASSMWVYQGVNF
4. YSFVCIRIGPLKEVCKLNSC
5. FLSSGFCRTDFVRSIILYGP

1. 2.91
2. 7.49
3. 0.662
4. -0.774
5. -1.43

For each of the substances below, note its amyloid nucleation score.
1. GNKLYFCSFAWLEVFKFKDL
2. ASDPIMTVSRPIPMHPLY
3. LLASFGFRKVKIYTLPCILA
4. LYVYGGSLNPGLVMFVPCWK
5. TYSLKFGSVVGRNYNLGY
6. RMRLPPFPIDWSDAYLFWHS
7. FRLRMRSGYSARLSRFFCPL
8. NTQVTQVILYLRPWV

1.86
-0.172
-1.15
-0.774
2.08
1.28
2.51
9.15

For each of the substances below, note its amyloid nucleation score.
1. FFDYLANFCLSKHGNNNYPF
2. YHSTTLTFERAQPSHNNTRL
3. IFRSMFILTYPGSRYNDEYL
4. RHTSNTIIDELFLDSMGWHN
5. KVNKCIIRQLDLNMPLASRW
6. CWLFNTY

-0.97
3.32
4.13
9.02
0.584
3.04

From: the supplement of paper PMC12042874
